target: UniProt P12931
Sequence (P12931 whole entry, species assumed): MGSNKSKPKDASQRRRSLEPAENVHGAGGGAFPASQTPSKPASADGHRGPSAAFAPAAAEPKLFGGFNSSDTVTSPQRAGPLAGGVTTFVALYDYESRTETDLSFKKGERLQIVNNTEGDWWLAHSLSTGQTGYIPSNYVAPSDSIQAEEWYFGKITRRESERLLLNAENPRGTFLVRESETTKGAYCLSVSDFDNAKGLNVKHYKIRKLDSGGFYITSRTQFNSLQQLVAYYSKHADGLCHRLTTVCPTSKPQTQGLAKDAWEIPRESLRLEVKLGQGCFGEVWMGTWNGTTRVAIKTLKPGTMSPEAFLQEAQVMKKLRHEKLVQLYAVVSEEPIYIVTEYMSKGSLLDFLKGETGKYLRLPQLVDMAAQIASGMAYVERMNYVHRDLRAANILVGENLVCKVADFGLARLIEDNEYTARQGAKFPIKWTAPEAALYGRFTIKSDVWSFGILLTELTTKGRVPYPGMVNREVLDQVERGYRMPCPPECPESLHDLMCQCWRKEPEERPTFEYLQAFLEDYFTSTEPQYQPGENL
Structures can show the parent of a compound that is named as a salt.
Let's look at some molecules and their measured IC50.

Molecule: COc1ccc2c(c1)ncn2-c1ccsc1 [Example 56, Hydrochloride]
Measured on: UniProt P12931
IC50: > 50 µM
//
Molecule: CCC(=O)Nc1ccc2c(c1)ncn2-c1ccccc1 [Example 24, Hydrochloride]
Measured on: UniProt P12931
IC50: > 50 µM
//
Molecule: O=Cc1cccc(-n2cnc3ccccc32)c1 [Example 4, Hydrochloride]
Measured on: UniProt P12931
IC50: > 50 µM
//
Molecule: COc1ccc2c(ncn2-c2ccccc2)c1OC [Example 60, Hydrochloride]
Measured on: UniProt P12931
IC50: > 50 µM
//
Molecule: O=Cc1ccc2c(c1)ncn2-c1ccccc1 [Example 21, 1-Phenylbenzimidazole-5-carboxaldehyde]
Measured on: UniProt P12931
IC50: 50 µM
//
Molecule: COc1ccc2c(ncn2-c2ccccc2)c1O [Example 63, Hydrochloride]
Measured on: UniProt P12931
IC50: 40 µM
//
Molecule: Cc1ccc2c(c1)ncn2-c1ccccc1 [Example 12, Hydrochloride]
Measured on: UniProt P12931
IC50: > 50 µM
//
Molecule: c1ccc2c(c1)ncn2-c1ccncc1 [Example 10, dihydrochloride]
Measured on: UniProt P12931
IC50: > 50 µM
//
Molecule: c1ccc(-n2cnc3cc(OCCCCN4CCOCC4)ccc32)cc1 [Example 59, Dihydrochloride]
Measured on: UniProt P12931
IC50: 25 µM
//
Molecule: OCCCCOc1ccc2c(c1)ncn2-c1ccccc1 [Example 57, Hydrochloride]
Measured on: UniProt P12931
IC50: > 50 µM
//
Molecule: c1ccc(-n2cnc3cc(OCCCN4CCOCC4)ccc32)cc1 [Example 39, Dihydrochloride]
Measured on: UniProt P12931
IC50: > 50 µM

---

Let's look at some compounds and their measured pIC50.
target: PDGF receptor tyrosine kinase (mouse PDGF-β) (Mus musculus, UniProt P05622); construct: PCR primers are designed to amplify a fragment of DNA that codes for the intracellular tyrosine kinase domain; assay: PDGFr tyrosine kinase assay (poly glutamate-tyrosine phosphorylation); conditions: Table 1; 10 minutes at 25° C.
Sequence (P05622 599-961 limits assumed): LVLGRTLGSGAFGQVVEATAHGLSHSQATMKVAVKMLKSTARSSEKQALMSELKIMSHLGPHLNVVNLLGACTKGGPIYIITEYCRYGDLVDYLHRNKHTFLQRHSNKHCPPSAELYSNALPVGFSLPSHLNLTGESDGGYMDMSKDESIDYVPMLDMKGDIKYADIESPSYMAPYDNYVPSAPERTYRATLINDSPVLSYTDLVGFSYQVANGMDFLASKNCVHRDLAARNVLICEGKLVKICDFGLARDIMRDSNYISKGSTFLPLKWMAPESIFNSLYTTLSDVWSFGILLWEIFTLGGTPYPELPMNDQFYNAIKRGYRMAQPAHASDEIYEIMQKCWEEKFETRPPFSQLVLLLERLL
pIC50: −log10 of the molar value. Structures can show the parent of a compound that is named as a salt.
Quantity: pIC50

Compound: COc1ccc2c(c1)ncn2-c1cccs1 [Example 55, Hydrochloride]
Measured on: PDGF receptor tyrosine kinase (mouse PDGF-β) (Mus musculus, UniProt P05622)
Result modifier: =
Recorded result: 5.60
//
Compound: CCC(=O)Nc1ccc2c(c1)ncn2-c1ccccc1 [Example 24, Hydrochloride]
Measured on: PDGF receptor tyrosine kinase (mouse PDGF-β) (Mus musculus, UniProt P05622)
Result modifier: =
Recorded result: 5.62
//
Compound: COC(=O)c1ccc2ncn(-c3ccccc3)c2c1 [Example 43, Hydrochloride]
Measured on: PDGF receptor tyrosine kinase (mouse PDGF-β) (Mus musculus, UniProt P05622)
Result modifier: =
Recorded result: 4.89
//
Compound: CC(=O)c1ccc2c(c1)ncn2-c1ccccc1 [Example 20, 5-Acetyl-1-phenylbenzimidazole]
Measured on: PDGF receptor tyrosine kinase (mouse PDGF-β) (Mus musculus, UniProt P05622)
Result modifier: =
Recorded result: 6.05
//
Compound: Oc1cc2ncn(-c3ccccc3)c2cc1O [Example 47, Hydrochloride]
Measured on: PDGF receptor tyrosine kinase (mouse PDGF-β) (Mus musculus, UniProt P05622)
Result modifier: =
Recorded result: 5.64
//
Compound: Oc1cccc(-n2cnc3ccccc32)c1 [Example 2, Hydrochloride]
Measured on: PDGF receptor tyrosine kinase (mouse PDGF-β) (Mus musculus, UniProt P05622)
Result modifier: =
Recorded result: 5.42
//
Compound: c1ccc(-n2cnc3cc(OCC4CO4)ccc32)cc1 (racemic) [Example 34]
Measured on: PDGF receptor tyrosine kinase (mouse PDGF-β) (Mus musculus, UniProt P05622)
Result modifier: =
Recorded result: 6.52
//
Compound: COC(=O)c1ccc2c(c1)ncn2-c1ccccc1 [Example 17]
Measured on: PDGF receptor tyrosine kinase (mouse PDGF-β) (Mus musculus, UniProt P05622)
Result modifier: =
Recorded result: 6.10
//
Compound: Nc1cccc(-n2cnc3ccccc32)c1 [Example 3, 1-(3-Aminophenyl)benzimidazole]
Measured on: PDGF receptor tyrosine kinase (mouse PDGF-β) (Mus musculus, UniProt P05622)
Result modifier: =
Recorded result: 5.44
//
Compound: Oc1ccc2ncn(-c3ccccc3)c2c1 [Example 41, Hydrochloride]
Measured on: PDGF receptor tyrosine kinase (mouse PDGF-β) (Mus musculus, UniProt P05622)
Result modifier: =
Recorded result: 5.68
//
Compound: Oc1ccc2c(c1)ncn2-c1ccccc1 [Example 14, 5-Hydroxy-1-phenylbenzimidazole]
Measured on: PDGF receptor tyrosine kinase (mouse PDGF-β) (Mus musculus, UniProt P05622)
Result modifier: =
Recorded result: 6.40
//
Compound: COc1ccc2c(c1)ncn2-c1ccsc1 [Example 56, Hydrochloride]
Measured on: PDGF receptor tyrosine kinase (mouse PDGF-β) (Mus musculus, UniProt P05622)
Result modifier: =
Recorded result: 6.15
//
Compound: COC(=O)c1ccc(-n2cnc3ccccc32)cc1 [Example 7, 1-(4-Carbomethoxyphenyl)benzimidazole]
Measured on: PDGF receptor tyrosine kinase (mouse PDGF-β) (Mus musculus, UniProt P05622)
Result modifier: =
Recorded result: 5.14
//
Compound: CC(C)Oc1ccc2c(c1)ncn2-c1ccccc1 [Example 30, Hydrochloride]
Measured on: PDGF receptor tyrosine kinase (mouse PDGF-β) (Mus musculus, UniProt P05622)
Result modifier: >
Recorded result: 4.30
//
Compound: COc1ccc(-n2cnc3ccccc32)cc1 [Example 5, Hydrochloride]
Measured on: PDGF receptor tyrosine kinase (mouse PDGF-β) (Mus musculus, UniProt P05622)
Result modifier: =
Recorded result: 4.92
//
Compound: Oc1cccc2c1ncn2-c1ccccc1 [Example 11, Hydrochloride]
Measured on: PDGF receptor tyrosine kinase (mouse PDGF-β) (Mus musculus, UniProt P05622)
Result modifier: =
Recorded result: 4.97
//
Compound: COc1cc2ncn(-c3ccccc3)c2cc1CO [Example 53, Hydrochloride]
Measured on: PDGF receptor tyrosine kinase (mouse PDGF-β) (Mus musculus, UniProt P05622)
Result modifier: =
Recorded result: 6.40
//
Compound: Oc1ccc(-n2cnc3ccccc32)cc1 [Example 6, Hydrochloride]
Measured on: PDGF receptor tyrosine kinase (mouse PDGF-β) (Mus musculus, UniProt P05622)
Result modifier: =
Recorded result: 5.74
//
Compound: CCCOc1ccc2c(c1)ncn2-c1ccccc1 [Example 29, hydrochloride]
Measured on: PDGF receptor tyrosine kinase (mouse PDGF-β) (Mus musculus, UniProt P05622)
Result modifier: =
Recorded result: 6.52
//
Compound: C=CCOc1ccc2c(c1)ncn2-c1ccccc1 [Example 32, Hydrochloride]
Measured on: PDGF receptor tyrosine kinase (mouse PDGF-β) (Mus musculus, UniProt P05622)
Result modifier: =
Recorded result: 6.22
